- Measurement description: Solubility in gastric juice or intestinal juice model fluid (precipitation method using DMSO)
- Format: physicochemical
- Setup conditions: pH 6.8, kinetic from dmso stock, 2nd fluid for Disintegration Test of Japanese Pharmacopoeia (pH: 6.8), room temperature, read-out: Solubility (μg/mL) 2nd fluid
Item-by-item account of solubility at 24 h

Compound: COc1cc(OCc2ccc(C(F)(F)F)nc2)ccc1-c1nc(C2CCCCC2)[nH]c1C [Example 48]
solubility at 24 h: 80.8 µg/mL
//
Compound: COc1cc(OCc2ccc(C(F)(F)F)nc2)ccc1-c1c[nH]c(C2CCCCC2)n1 [Example 53]
solubility at 24 h: 4.6 µg/mL
//
Compound: COc1cc(OCc2ccc(C(F)(F)F)cn2)ccc1-c1nc(-c2ccc(Cl)nc2)[nH]c1Br [Example 225]
solubility at 24 h: 0.9 µg/mL
//
Compound: COc1cc(OCc2ccc(C(F)(F)F)cn2)ccc1-c1nc(-c2ccc(Cl)nc2)n(CC2CC2)c1Cl [Example 294]
solubility at 24 h: 2.4 µg/mL
